Recorded values, source patent US20120258938A1.

Test system: anti-CD3 stimulated DBA/1 Lac J spleen cells
Assay: Cytokine/chemokine production by anti-CD3 stimulated spleen cells (Luminex)
Assay type: cell-based, mouse
Details: spleen cells + anti-CD3 (4 μg/ml) + analogue 10^−7 M, 5 days, supernatant, one mouse
READOUT_KIND: KC (pg/mL)
Could you give me the number in pg/mL? Just the number is fine.

A selection of reference data follows.
C=C1CC[C@H](O)C/C1=C/C=C1\CCC[C@@]2(C)[C@H]1CC[C@@H]2[C@@](C)(O)CCCC(C)C    39
C=C1CC[C@H](O)C/C1=C/C=C1\CCC[C@]2(C)[C@@H](C(C)(O)CC(O)CC(C)C)CC[C@@H]12 (stereo partly shown) [20,23-dihydroxycholecalciferol]    47
C=C1CC[C@H](O)C/C1=C/C=C1\CCC[C@@]2(C)[C@H]1CC[C@]2(O)[C@H](C)O [17,20S(OH)2pD3]    5

Please find the next compound below.
## Task Look at this compound and give its reported KC. C=C1/C(=C\C=C2/CCC[C@]3(C)[C@@H]([C@H](C)CCCC(C)(C)O)CC[C@@H]23)C[C@@H](O)C[C@@H]1O [1α,25-dihydroxycholecalciferol, reference compound]
## Result 3

----------
Test system: anti-CD3 stimulated DBA/1 Lac J spleen cells
Experiment: Cytokine/chemokine production by anti-CD3 stimulated spleen cells (Luminex)
Assay type: cell-based, mouse
Settings: spleen cells + anti-CD3 (4 μg/ml) + analogue 10^−7 M, 5 days, supernatant, one mouse
READOUT_KIND: IFNγ (pg/mL)
Field format: number, assumed pg/mL, no unit text.

C=C1CC[C@H](O)C/C1=C/C=C1\CCC[C@]2(C)[C@@H](C(C)(O)CC(O)CC(C)C)CC[C@@H]12 (stereo partly shown) [20,23-dihydroxycholecalciferol]    271
C=C1CC[C@H](O)C/C1=C/C=C1\CCC[C@@]2(C)[C@H]1CC[C@@H]2[C@@](C)(O)CCCC(C)C    494
C=C1CC[C@H](O)C/C1=C/C=C1\CCC[C@@]2(C)[C@H]1CC[C@]2(O)[C@H](C)O [17,20S(OH)2pD3]    0

## Task Any idea what IFNγ was measured for C=C1/C(=C\C=C2/CCC[C@]3(C)[C@@H]([C@H](C)CCCC(C)(C)O)CC[C@@H]23)C[C@@H](O)C[C@@H]1O [1α,25-dihydroxycholecalciferol, reference compound] ?
## Result 0

----------
Some compounds, each annotated with its measured IL-10.
System: anti-CD3 stimulated DBA/1 Lac J spleen cells
Experiment: Cytokine/chemokine production by anti-CD3 stimulated spleen cells (Luminex)
Format: cell-based, mouse
Conditions: spleen cells + anti-CD3 (4 μg/ml) + analogue 10^−7 M, 5 days, supernatant, one mouse

The cases that follow already have their IL-10 on record.
C=C1CC[C@H](O)C/C1=C/C=C1\CCC[C@@]2(C)[C@H]1CC[C@]2(O)[C@H](C)O [17,20S(OH)2pD3]    16 pg/mL
C=C1CC[C@H](O)C/C1=C/C=C1\CCC[C@]2(C)[C@@H](C(C)(O)CC(O)CC(C)C)CC[C@@H]12 (stereo partly shown) [20,23-dihydroxycholecalciferol]    56 pg/mL

## Task Recorded IL-10 for "C=C1CC[C@H](O)C/C1=C/C=C1\CCC[C@@]2(C)[C@H]1CC[C@@H]2[C@@](C)(O)CCCC(C)C" with anti-CD3 stimulated DBA/1 Lac J spleen cells, please?
## Result 37 pg/mL

## Task Which measured IL-10 belongs to C=C1/C(=C\C=C2/CCC[C@]3(C)[C@@H]([C@H](C)CCCC(C)(C)O)CC[C@@H]23)C[C@@H](O)C[C@@H]1O [1α,25-dihydroxycholecalciferol, reference compound] , tested on anti-CD3 stimulated DBA/1 Lac J spleen cells?
## Result 1 pg/mL
